# study.target: T1, HCV Core1-169 (hepatitis C virus (HCV-1), UniProt P26664 1-169)
# T1 sequence: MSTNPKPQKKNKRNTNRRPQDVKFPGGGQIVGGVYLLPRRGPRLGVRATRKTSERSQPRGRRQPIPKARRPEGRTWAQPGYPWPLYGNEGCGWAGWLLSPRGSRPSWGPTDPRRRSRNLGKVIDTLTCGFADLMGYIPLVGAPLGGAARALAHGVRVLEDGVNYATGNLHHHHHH
# assay.protocol: SPR sandwich, capture mAb C11-14
metric.name: expected percent binding (%)
Response body: numeric value in %, unit text excluded.

Data point: HCV 208B-1094 (antibody, V domains shown) VH: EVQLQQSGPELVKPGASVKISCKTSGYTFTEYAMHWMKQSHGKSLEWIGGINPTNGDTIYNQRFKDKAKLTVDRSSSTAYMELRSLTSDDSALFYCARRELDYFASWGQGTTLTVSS VL: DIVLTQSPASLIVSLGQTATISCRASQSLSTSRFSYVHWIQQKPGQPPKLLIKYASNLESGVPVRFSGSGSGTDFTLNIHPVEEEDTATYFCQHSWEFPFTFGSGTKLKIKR ; expected percent binding = 27.8

Data point: HCV 208B-672 (antibody, V domains shown) VH: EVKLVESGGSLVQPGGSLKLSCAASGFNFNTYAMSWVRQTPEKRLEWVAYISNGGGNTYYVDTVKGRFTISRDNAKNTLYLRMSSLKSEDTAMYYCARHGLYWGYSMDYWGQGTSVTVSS VL: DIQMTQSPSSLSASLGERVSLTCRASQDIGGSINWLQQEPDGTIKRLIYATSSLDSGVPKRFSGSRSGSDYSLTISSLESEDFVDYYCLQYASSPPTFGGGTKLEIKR ; expected percent binding = 2.7
